Taken from the RNAGym collection of RNA variant scans (doi:10.1093/nar/gkz1192).

B1: CPEB3 Ribozyme (parent)
chain: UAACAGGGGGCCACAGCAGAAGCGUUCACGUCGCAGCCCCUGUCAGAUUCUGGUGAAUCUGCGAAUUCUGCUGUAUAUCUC

Variants of: B1
Assay: self-cleavage, relative activity (ratio to wild type); higher = more cleavage; in vitro, sequencing
The entries below come with measured self-cleavage values attached.

# sequence input, self-cleavage
measured = [
    ("UAACAGGGGGCCACAGCAGACGCGUUCACGUCGCAGCCCCUGUCAGAUUCUGGUGAAUCUGCGAAUUCUGCUGUAUAUCCC [A21C U80C]", 0.1),
    ("UAACAGGGGGCCACAGCUGAAGCGUUCACGUCGCAGCCCCUGUCAGAUACUGGUGAAUCUGCGAAUUCUGCUGUAUAUCUC [A18U U49A]", 0.38),
    ("UAACAGGGGGCCACAGCAGAAGCGUUCACGUUGCCGCCCCUGUCAGAUUCUGGUGAAUCUGCGAAUUCUGCUGUAUAUCUC [C32U A35C]", 0.18),
    ("UAACAGAGGGCCACAGCAGAAGCGUUCACGUCGCAGCCCCUGUCAGAUUCUGGUGAAACUGCGAAUUCUGCUGUAUAUCUC [G7A U58A]", 0.27),
    ("UAACAGGGAGCCACAGCAGGAGCGUUCACGUCGCAGCCCCUGUCAGAUUCUGGUGAAUCUGCGAAUUCUGCUGUAUAUCUC [G9A A20G]", 0.37),
    ("UAACAGGGGGCCACAGCAGAAGCGUUCACGUCGCAGCCCCUGUCCGAUUCUGGUGAAUCUGCGAAUUCUGCUGUUUAUCUC [A45C A75U]", 0.5),
    ("UGACAGGGGGCCACAGCAGAUGCGUUCACGUCGCAGCCCCUGUCAGAUUCUGGUGAAUCUGCGAAUUCUGCUGUAUAUCUC [A2G A21U]", 0.35),
    ("UAACAGGGGGCCACAGCAGAAGCGCUCACAUCGCAGCCCCUGUCAGAUUCUGGUGAAUCUGCGAAUUCUGCUGUAUAUCUC [U25C G30A]", 0.33),
    ("UGACAGGGGGCCACAGCAGAAGCGUUCACGUCGCAGCCCCUGACAGAUUCUGGUGAAUCUGCGAAUUCUGCUGUAUAUCUC [A2G U43A]", 1.02),
    ("UAACAGGGGGCCACAGCAGAAGCGUUCACGUCGCAGCCCCUGACAGAUGCUGGUGAAUCUGCGAAUUCUGCUGUAUAUCUC [U43A U49G]", 0.52),
    ("UAACAGGGGGCCACAGCAGAAGCGUUCACGUCGCAGCCCCUGUCAGAUUCUGGUGAAUCUCCUAAUUCUGCUGUAUAUCUC [G61C G63U]", 0.35),
    ("UAACAGGGGGCCACAGCAGAAGCGUUCACUUCGCAGCCCCUGUCAGAUUCUGGUGAAUCUGCGGAUUCUGCUGUAUAUCUC [G30U A64G]", 0.23),
    ("UAACAGGGGGCCACAGCAGAAGCGUUCACGUCGCAGCCCCUGUCAGAUUCGGGUGAAUCUGCGAAUACUGCUGUAUAUCUC [U51G U67A]", 0.43),
    ("UAACAAGGGGCCACAGCAGAAGCGUUCCCGUCGCAGCCCCUGUCAGAUUCUGGUGAAUCUGCGAAUUCUGCUGUAUAUCUC [G6A A28C]", 0.15),
    ("UAACAGGGGGCCACAGCAGAAGCGUACACGUCGCAGCCCCUGUCAGAUUCUGGUGAAUCUGCGAAUUCUGCUGUAUUUCUC [U26A A77U]", 1.03),
    ("UAACAGGGGGCCACAGCAGAAGCGUUCACGUCGCAGCCCCUGUCAGAUUCUGGUGAAUCUGAGAUUUCUGCUGUAUAUCUC [C62A A65U]", 0.24),
    ("UAACAGGGGGCCAUAGCAGGAGCGUUCACGUCGCAGCCCCUGUCAGAUUCUGGUGAAUCUGCGAAUUCUGCUGUAUAUCUC [C14U A20G]", 1.19),
    ("UAACUGGGGGCCACAGCAGAAGCGUUCACGCCGCAGCCCCUGUCAGAUUCUGGUGAAUCUGCGAAUUCUGCUGUAUAUCUC [A5U U31C]", 0.92),
    ("UAACAGGGGGCCACAGCAGAAGCGUUCACGUCGCAGCCCAUGUCAGAUUCUGGUGAGUCUGCGAAUUCUGCUGUAUAUCUC [C40A A57G]", 0.22),
    ("UAACAGGGGGCCACAGCAGAAGCGUUCACGUCGCAGCCCCUGUCAGAUUCUGGUGAAUCUUCGAAUGCUGCUGUAUAUCUC [G61U U67G]", 0.23),
    ("UAACAGGGGGCCACAGUAGAAGCCUUCACGUCGCAGCCCCUGUCAGAUUCUGGUGAAUCUGCGAAUUCUGCUGUAUAUCUC [C17U G24C]", 0.11),
    ("UAACAGGGGGCCACAGCAGAAGCGAUCACGUCGCAGCCCCUGUCAGAUUCUGGUGAAUCUGCGAAUUCUGCUGUAUAUCAC [U25A U80A]", 0.45),
    ("UAACUGGGGGCCACAGCAGAAGCGUUCACGUCGCAGCCUCUGUCAGAUUCUGGUGAAUCUGCGAAUUCUGCUGUAUAUCUC [A5U C39U]", 0.95),
    ("UAACAGGGGGCCACAGCAGAAGCUUUCACGUCGCAGCCCCUGUCAGAUUCUGGUGAAUCUGCGAAUUCUGCUGUAUAUCAC [G24U U80A]", 0.22),
    ("UAACAGGGGGCCACAGCAGAAGCGUUCACCCCGCAGCCCCUGUCAGAUUCUGGUGAAUCUGCGAAUUCUGCUGUAUAUCUC [G30C U31C]", 0.26),
    ("UAGCCGGGGGCCACAGCAGAAGCGUUCACGUCGCAGCCCCUGUCAGAUUCUGGUGAAUCUGCGAAUUCUGCUGUAUAUCUC [A3G A5C]", 0.71),
    ("UAACAGGGGGCCACAGCAGAAGCGUUCACGUCGCAGCCCCUGUCAGAUUCUGGUGAAUCCGCGAAUUCUGCUGUAGAUCUC [U60C U76G]", 0.51),
    ("UAACAGGUGGCCACAGCAGAAGCGUUCACGUCGCAGCCCCUGUCAGAUUCUUGUGAAUCUGCGAAUUCUGCUGUAUAUCUC [G8U G52U]", 0.21),
    ("UAACAGGGUGCCACAGCAGAAGCGUUCACGUCGCAGCCCCUGUCAGAUUCUGGUGAAUCUGCGGAUUCUGCUGUAUAUCUC [G9U A64G]", 0.15),
    ("UAACAGGGGGCCACAGCAGAAGCGUUCACGUCGCAGCCCCUGUCAGAUUCUGGUGAAUCUGCGAAUUCUGCAGUAUAUCGC [U72A U80G]", 0.99),
    ("UAACAGGGGGCCACAGCAGAAGCGUUCACGUCGCGGCCCCUGUCAGAUUCUGGUAAAUCUGCGAAUUCUGCUGUAUAUCUC [A35G G55A]", 1.23),
    ("UAACAGGGGGCCUCAGCAGAAGCGUUCACGUCGCAGCCCCUGUCAGAUUCUGGGGAAUCUGCGAAUUCUGCUGUAUAUCUC [A13U U54G]", 1.01),
    ("UAACAGGGGGCCACAGCAGAAGCGUUCACGUCGCAGCCCCUGUCAGAUUCUGGUGAAUCUGCGUAUUAUGCUGUAUAUCUC [A64U C68A]", 0.37),
    ("UAACAGGGGGGCUCAGCAGAAGCGUUCACGUCGCAGCCCCUGUCAGAUUCUGGUGAAUCUGCGAAUUCUGCUGUAUAUCUC [C11G A13U]", 0.75),
    ("UAACAGGGGGCCACAGCAGAAGCGUUCACGCCGCAGCCCAUGUCAGAUUCUGGUGAAUCUGCGAAUUCUGCUGUAUAUCUC [U31C C40A]", 0.2),
    ("UAACAGGGGGCCACAGCAGAAGCGUUCACGUCGCUGCCCCUGUCAGAUUCUGGUGAAUCUGCGAAUUCUGCUGUAUAACUC [A35U U78A]", 0.54),
    ("UAACAGGGGGCCACAGCAGAAGCGUUCACGUCGCACCCCCUGUCAGAUUCUGGUGAAUCUGUGAAUUCUGCUGUAUAUCUC [G36C C62U]", 0.15),
    ("UGACAGGGGGCCACAGCAGAAGCGUUCACGUCGCAGCCCCCGUCAGAUUCUGGUGAAUCUGCGAAUUCUGCUGUAUAUCUC [A2G U41C]", 0.78),
    ("UAACAGGGGGCCACAGCAGAAGCGUUCACGUCGCAGCCCCUGUCAGAUUCUGGUGAAUCUGCGUAUACUGCUGUAUAUCUC [A64U U67A]", 0.29),
    ("UAACAGGGGGCCACAGCAGAAGCGUUCACGUCGCAGCCCCUGUGAGAUUCUGGUGAAUCUGCGAAUUCUGCGGUAUAUCUC [C44G U72G]", 0.2),
    ("UAACAGGGGGCCACAGCAGAAGCGUUCACGUCGCAGCCCCUGUCAGAUUCUGGUCAAUCUGCGAAUUCUCCUGUAUAUCUC [G55C G70C]", 0.17),
    ("UAACAGGGGGCCACAGCAGAAGCGUUCACGUCGCAGCCCCGGUCAGAUUCUGGUGAAUCUGCGAAUUCGGCUGUAUAUCUC [U41G U69G]", 0.22),
    ("UAACAGGGGGCCACAGCAGAAGCGUUCACGUCGCAGCCCCUGUCAGAUUCUGGUGAAUAUGCGAAUUCUGCUGUAUGUCUC [C59A A77G]", 0.31),
    ("UAACAGGGGGCCACAGCAGAAGCGUUCACGUCGCAGCCCAUGUCAGAUUCUGGUGAAUCUGCAAAUUCUGCUGUAUAUCUC [C40A G63A]", 0.12),
    ("UAACAGGGGGCCACAGCAGGAGCGUUCACGUCGCAGCCCCUGUCAGAUUCUGGUAAAUCUGCGAAUUCUGCUGUAUAUCUC [A20G G55A]", 0.58),
    ("UAACAGGGGGCCACAGCAGAAACGUUCACGACGCAGCCCCUGUCAGAUUCUGGUGAAUCUGCGAAUUCUGCUGUAUAUCUC [G22A U31A]", 0.34),
]
